Biological target: T1, ZFP SBS#1492 (synthetic)
T1 chain: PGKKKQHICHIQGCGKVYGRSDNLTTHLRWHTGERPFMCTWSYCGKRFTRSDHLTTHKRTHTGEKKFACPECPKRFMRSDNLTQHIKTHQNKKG
Assay: EMSA
Settings: tags: MBP fusion
READOUT_KIND: pKd
Convention used: pKd is expressed as -log10 of the molar concentration.

Provide only the value of recorded pKd for AAGTGGTAG (dsDNA) DNA 1: AAGTGGTAG DNA 2: CTACCACTT
8.86
